Recorded TGI, one value per entry.
Test system: HL-60(TB) leukemia
Assay Protocol: NCI tumour cell line growth inhibition, 48 h
Metric Name: TGI (µM)

compound=CN(C)C=Nc1c2ccccc2nc2ccccc12 metric_name=TGI inequality_operator== reported_result=18.2
compound="CCOc1cn(C2OC(CO)C(O)C2O)c(=O)[nH]c1=O (centres undefined)" metric_name=TGI inequality_operator=> reported_result=100
compound="CC(NCc1c(O)ccc2ccc(=O)oc12)C(=O)O (centres undefined)" metric_name=TGI inequality_operator=> reported_result=100
compound=C=C1C(=O)O[C@@H]2/C=C(\C)CC/C=C(\C)CC[C@@]12O metric_name=TGI inequality_operator== reported_result=3.02
compound=C=CCC1(Sc2ccccn2)Sc2ccc3ccccc3c2-c2c(ccc3ccccc23)S1 metric_name=TGI inequality_operator=> reported_result=100
compound=NS(=O)(=O)c1ccc(NC(=O)Cc2nc3ccccc3s2)cc1 metric_name=TGI inequality_operator== reported_result=45.7
compound="CC(=O)O[C@H]1CCN2C(=O)C=CC(OCc3ccccc3)C12 (some centres undefined)" metric_name=TGI inequality_operator=> reported_result=100
compound=COC(=O)[C@]12CC[C@@H](C)[C@H](C)[C@@H]1C1=CC[C@@H]3[C@@]4(C)C[C@@H](OC(=O)/C=C/c5ccccc5)[C@H](O)[C@@](C)(CO)[C@@H]4[C@H](O)C[C@@]3(C)[C@]1(C)CC2 metric_name=TGI inequality_operator== reported_result=6.51
compound=C=CC(=O)N1C[C@@H]2CCOc3c(Cl)c(-c4c(O)cccc4F)c(F)c4ncnc(c34)N2C[C@H]1C metric_name=TGI inequality_operator== reported_result=33.1

Measured values drawn from PubChem BioAssay (NCI) for this set.
